- SYSTEM_NAME: T1, Sumo-SiwR (Mycobacterium smegmatis, UniProt A0QS56 1-320)
- T1 sequence: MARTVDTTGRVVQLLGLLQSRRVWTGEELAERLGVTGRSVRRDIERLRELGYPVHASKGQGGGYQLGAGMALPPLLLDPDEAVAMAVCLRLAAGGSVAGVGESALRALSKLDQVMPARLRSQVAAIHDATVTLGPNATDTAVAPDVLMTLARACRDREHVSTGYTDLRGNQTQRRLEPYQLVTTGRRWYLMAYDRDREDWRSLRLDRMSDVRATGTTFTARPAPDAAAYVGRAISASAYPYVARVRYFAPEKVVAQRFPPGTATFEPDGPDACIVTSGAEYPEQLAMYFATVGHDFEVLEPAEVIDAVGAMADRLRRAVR
- EXPERIMENTAL_DETAILS: EMSA; EMSA: 5 mM HEPES-KOH pH 7.0, 30 mM NaCl, 2.5% Ficoll 400K, 1% glycerol, 5 nM probe (10 nM in Fig. 2a legend), 37 °C 15 min; anisotropy: 5 mM HEPES-KOH pH 7, 30
- MEASUREMENT_CONTEXT: protein: recombinant; tags: His6-TEV-Sumo N-terminal fusion; chain copies: 2; label: 5'-FAM on strand 1; blunt
READOUT: binding result

fragment d (dsDNA) DNA 1: GGCATATAGGACAGTTCCGGTCCTAAAAGT DNA 2: ACTTTTAGGACCGGAACTGTCCTATATGCC    binds
fragment a (dsDNA) DNA 1: GTGACCCACCCTGACAGGCATATAGGACAGT DNA 2: ACTGTCCTATATGCCTGTCAGGGTGGGTCAC    no binding
fragment b (dsDNA) DNA 1: TCCGGTCCTAAAAGTGCGGCAGACTTGTCGC DNA 2: GCGACAAGTCTGCCGCACTTTTAGGACCGGA    no binding
fragment c (dsDNA) DNA 1: TGACAGGCATATAGGACAGTTCCGGTCCTAAAAGTGCGGC DNA 2: GCCGCACTTTTAGGACCGGAACTGTCCTATATGCCTGTCA    binds

# credit: paper PMC10693628
